Data provenance is PubChem BioAssay AID2073.

- test target: Voltage-dependent N-type calcium channel subunit alpha-1B (Homo sapiens)
- experiment summary: disruptors of CaV2.2 binding to Mint1 – biochemical, HTRF (AID 2073)
- assay conditions: HTRF protein-protein interaction, Mint1-CaV2.2; at 20 µM; active compounds read high
In all, about 290,000 compounds went through this assay and about 570 (0.2%) were called active. Not shown: some 1% with an inconclusive outcome. The full list was thinned out, with actives kept by preference.
inhibition values by entry
quantity name: inhibition (%)

Cc1cc(Cl)ccc1N=C1N=C(N)c2ccccc21 = -3.2
Nc1ccccc1N=c1ssnc1Cl = 4.1
OCc1ccccc1N=c1ssnc1Cl = 9.9
CCC(C(=O)N1CCOCC1)n1nc(C)c2sc3ccccc3c2c1=O (stereo unspecified) = 12.1
Cc1cccc(COCC(Cc2ccccc2)N2CCN(C(=O)c3cccc(Cl)c3)CCC2=O)c1 (stereo unspecified) = 1.7
FC(F)(F)Oc1ccc(NC(=S)NCCCN2CCOCC2)cc1 = -16.9

* * *

- test target: Voltage-dependent N-type calcium channel subunit alpha-1B (Homo sapiens) (UniProt Q00975)
- Sequence (Q00975 whole entry, looked up): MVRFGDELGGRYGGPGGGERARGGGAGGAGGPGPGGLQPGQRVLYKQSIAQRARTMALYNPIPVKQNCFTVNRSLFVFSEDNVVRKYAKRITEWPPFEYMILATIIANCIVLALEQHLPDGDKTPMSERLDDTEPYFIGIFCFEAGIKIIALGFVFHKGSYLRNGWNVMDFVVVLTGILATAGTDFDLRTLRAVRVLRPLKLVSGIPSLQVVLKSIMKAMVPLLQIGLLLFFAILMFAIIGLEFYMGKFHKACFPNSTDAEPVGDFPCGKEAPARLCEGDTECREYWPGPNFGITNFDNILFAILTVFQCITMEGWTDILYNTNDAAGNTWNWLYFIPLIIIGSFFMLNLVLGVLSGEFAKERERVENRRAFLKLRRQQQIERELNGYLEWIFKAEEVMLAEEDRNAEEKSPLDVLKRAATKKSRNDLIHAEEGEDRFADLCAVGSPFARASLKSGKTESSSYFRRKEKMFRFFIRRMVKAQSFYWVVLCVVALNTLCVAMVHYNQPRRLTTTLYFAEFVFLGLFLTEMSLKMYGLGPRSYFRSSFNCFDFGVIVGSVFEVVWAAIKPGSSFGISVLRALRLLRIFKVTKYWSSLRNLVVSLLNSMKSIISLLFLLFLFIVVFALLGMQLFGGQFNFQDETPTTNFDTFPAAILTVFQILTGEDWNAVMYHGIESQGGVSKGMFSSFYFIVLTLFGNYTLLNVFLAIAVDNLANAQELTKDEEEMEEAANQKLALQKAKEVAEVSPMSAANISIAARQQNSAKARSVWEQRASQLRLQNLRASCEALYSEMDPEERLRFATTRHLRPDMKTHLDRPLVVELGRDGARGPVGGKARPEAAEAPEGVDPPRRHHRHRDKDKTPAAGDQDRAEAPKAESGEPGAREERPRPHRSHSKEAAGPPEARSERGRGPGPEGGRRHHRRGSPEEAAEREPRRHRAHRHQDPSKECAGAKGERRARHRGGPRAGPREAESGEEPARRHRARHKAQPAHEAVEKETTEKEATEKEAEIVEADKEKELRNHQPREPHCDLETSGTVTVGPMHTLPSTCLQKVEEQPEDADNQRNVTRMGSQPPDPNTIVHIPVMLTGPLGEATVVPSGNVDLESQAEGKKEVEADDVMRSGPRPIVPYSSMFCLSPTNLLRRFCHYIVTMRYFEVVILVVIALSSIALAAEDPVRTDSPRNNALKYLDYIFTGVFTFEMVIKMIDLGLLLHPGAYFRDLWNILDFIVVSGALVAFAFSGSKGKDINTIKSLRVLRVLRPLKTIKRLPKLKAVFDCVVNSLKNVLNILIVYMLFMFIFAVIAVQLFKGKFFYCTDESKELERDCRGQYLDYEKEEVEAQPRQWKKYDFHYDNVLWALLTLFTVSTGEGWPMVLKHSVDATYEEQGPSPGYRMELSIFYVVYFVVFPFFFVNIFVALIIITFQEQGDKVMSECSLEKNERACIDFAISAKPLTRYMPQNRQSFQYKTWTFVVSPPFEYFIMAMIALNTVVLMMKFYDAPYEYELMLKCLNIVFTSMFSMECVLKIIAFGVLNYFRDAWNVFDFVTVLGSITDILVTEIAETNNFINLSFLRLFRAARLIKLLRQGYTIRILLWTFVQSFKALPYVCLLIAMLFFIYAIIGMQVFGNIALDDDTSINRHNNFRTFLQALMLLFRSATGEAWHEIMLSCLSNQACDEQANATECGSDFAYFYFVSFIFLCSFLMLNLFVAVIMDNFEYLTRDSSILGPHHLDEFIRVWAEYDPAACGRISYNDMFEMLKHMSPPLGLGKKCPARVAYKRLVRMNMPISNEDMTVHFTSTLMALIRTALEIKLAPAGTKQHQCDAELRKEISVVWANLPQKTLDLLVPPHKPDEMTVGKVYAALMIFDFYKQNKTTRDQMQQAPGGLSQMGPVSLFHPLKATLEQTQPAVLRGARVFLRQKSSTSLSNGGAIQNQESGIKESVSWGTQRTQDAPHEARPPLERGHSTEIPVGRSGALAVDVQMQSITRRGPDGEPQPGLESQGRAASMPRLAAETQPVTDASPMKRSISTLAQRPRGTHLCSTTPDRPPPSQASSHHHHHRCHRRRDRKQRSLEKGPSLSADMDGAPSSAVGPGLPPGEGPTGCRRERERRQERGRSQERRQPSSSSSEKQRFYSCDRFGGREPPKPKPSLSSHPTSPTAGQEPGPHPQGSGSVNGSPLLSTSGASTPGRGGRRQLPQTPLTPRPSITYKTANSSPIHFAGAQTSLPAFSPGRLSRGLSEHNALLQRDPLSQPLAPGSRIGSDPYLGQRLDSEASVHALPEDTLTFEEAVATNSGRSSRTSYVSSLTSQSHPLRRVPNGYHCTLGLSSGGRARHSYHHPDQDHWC
- experiment summary: disruptors of CaV2.2 binding to Mint1 – biochemical, HTRF (AID 2073)
- assay conditions: HTRF protein-protein interaction, Mint1-CaV2.2; at 20 µM; active compounds read high
The whole screen tested about 290,000 compounds, of which about 570 (0.2%) were called active. Not shown: some 1% with an inconclusive outcome. This excerpt belongs to a sample that is enriched for actives.
quantity name: inhibition

O=c1cc(O)c2sc(Nc3ccc(F)c(Cl)c3)nc2[nH]1 = 86.3% (active)
Fc1ccc(Nc2nnc(C(F)(F)F)s2)cc1Cl = 10.6% (inactive)
O=c1cnnc(Nc2cccc(C(F)(F)F)c2)[nH]1 = 2.4% (inactive)
O=C(N/N=C/c1ccc([N+](=O)[O-])o1)c1cn(-c2ccccc2)nc1-c1ccc(Cl)cc1 = 67.5% (active)
O=c1cc(O)c2sc(Nc3ccc(Cl)c(F)c3)nc2[nH]1 = 66.1% (inactive)
COC(=O)N1CC(c2ccccc2)CC1=O (configuration not stated) = -7.4% (inactive)
Cn1c(=S)[nH]c(=O)c2ncc(=O)[nH]c21 = -1.9% (inactive)
Fc1ccc(Nc2nc3ccccc3s2)cc1 = 3.5% (inactive)
Cc1nn(CC(=O)N2CCC(N3CCCCC3)CC2)c(=O)c2c1sc1ccccc12 = 16.1% (inactive)
CCOC(=O)c1cnn(-c2cc(C)cc(C)c2)c1N = 3.5% (inactive)
Cc1cc(=O)[nH]c(Nc2cccc(C(F)(F)F)c2)n1 = -2.3% (inactive)
O=c1cc(O)c2sc(Nc3cccc(C(F)(F)F)c3)nc2[nH]1 = 66.6% (active)

* * *

- test target: Voltage-dependent N-type calcium channel subunit alpha-1B (Homo sapiens)
- experiment summary: disruptors of CaV2.2 binding to Mint1 – biochemical, HTRF (AID 2073)
- assay conditions: HTRF protein-protein interaction, Mint1-CaV2.2; at 20 µM
Screen size: about 290,000 compounds; about 570 (0.2%) were called active. Not shown: some 1% with an inconclusive outcome. Cut-off read from the data, not from the text of the source: active = inhibition mostly above about 51% (no sharp cut-off); inconclusive = no clear call, values can overlap the other calls; inactive = mostly below about 53%. The entries come from a sample that favours actives as a whole.
Labels: 1 (yes) = active, 0 (no) = inactive

CCCc1ccc(-c2cc(C(=O)N/N=C/c3ccc([N+](=O)[O-])o3)c3ccccc3n2)cc1 = 0 (no)
O=C1/C(=C/c2ccco2)CCc2ccccc21 = 0 (no)
O=C1NC(=Nc2ccc(Cl)cc2)/C(=C/c2ccco2)S1 = 1 (yes)
Cc1ccc(N=C2NC(=O)/C(=C/C=C/c3ccco3)S2)cc1 = 0 (no)
O=c1[nH]cnc(O)c1N=Nc1ccccc1 = 0 (no)
C(=C\c1ccco1)/c1nc2ccccc2[nH]1 = 1 (yes)
Cc1ccc(/C=C/c2nc3ccccc3[nH]2)o1 = 0 (no)
CN(Cc1ccccc1F)C(=O)c1ccccc1Sc1ccccc1C#N = 0 (no)
COc1ccc(N=C2NC(=O)/C(=C\c3ccco3)S2)cc1 = 1 (yes)
CC1(C)CC2CC(C)(CN2C(=S)Nc2ccccc2)C1 (centres undefined) = 0 (no)
Cc1nc2ccc(NC(=O)N(C(C)C)C(C)C)cc2s1 = 0 (no)
C(=C\c1nc2ccccc2[nH]1)/c1ccccc1 = 0 (no)
O=C(CNC(=O)c1ccc(Cl)cc1)N/N=C/C=C/c1ccccc1 = 0 (no)
Cc1cccc(NC(=O)CCN2C(=O)C3C4C=CC(C4)C3C2=O)n1 (centres undefined) = 0 (no)
COc1ccc(-c2nn(-c3ccccc3)cc2C(=O)N/N=C/c2ccc([N+](=O)[O-])o2)cc1 = 0 (no)
CCN(CC)CCNC(=O)c1ccc(NC(=O)COc2ccccc2F)cc1 = 0 (no)
CC(C)N(C(=O)Nc1ccc2nsnc2c1)C(C)C = 1 (yes)
O=C1/C(=C/c2ccco2)Cc2ccccc21 = 0 (no)
Cc1ccc(N=C2NC(=O)S/C2=C\c2ccco2)cc1 = 0 (no)
O=S(=O)(/N=C(/Nc1ccccc1)c1ccccc1O)c1ccccc1 = 0 (no)
O=C(Cn1c(-c2ccco2)nc2ccccc21)N1CCCCC1 = 0 (no)
Cc1ccc(N=C2NC(=O)/C(=C\c3ccco3)S2)cc1 = 0 (no)
Cc1cccc(N=C2NC(=O)/C(=C/C=C/c3ccco3)S2)c1 = 0 (no)
COC(=O)C1C(O)=C(C=NC2CCCCC2)C(=O)CC1(C)C (centres undefined) = 0 (no)
